assay: BSK_4H_SRB: Viability Assessment in the BioMAP Diversity Plus: 4H Assay (AID 2283027); details: primary human endothelial cells (HUVEC);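 note: cells exposed to compound for 24 h before staining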
The source made the active and inactive calls. Rule for the calls: active = hit-call score of the fitted dose curve at least 0.9, where 1 is the maximum; inactive = score below 0.9.
Allowed answers: 1 (yes) (active), 0 (no) (inactive)

Q: // return assay outcome for CCOC(C=C(C)CCC=C(C)C)OCC
Result: 1 (yes)

Q: Can you look up the reported call for OCCCCC(F)(F)C(F)(F)C(F)(F)C(F)(F)F for me?
Result: 0 (no)

Q: Please share the test call associated with CC(C)(C)c1cc(CCC(=O)NCCCCCCNC(=O)CCc2cc(C(C)(C)C)c(O)c(C(C)(C)C)c2)cc(C(C)(C)C)c1O .
Result: 0 (no)

Q: Hi, do you know how CCN(CC)c1ccc(C=O)cc1 came out in this test?
Result: 0 (no)

Q: Record lookup: outcome of this test for O=C(c1ccccc1)c1ccc(O)cc1O ?
Result: 0 (no)

Q: State the result this test recorded for O=S(=O)(O)CCC(F)(F)C(F)(F)C(F)(F)C(F)(F)F .
Result: 0 (no)

Q: Recorded test outcome, item NC(=O)C(F)(F)C(F)(F)C(F)(F)C(F)F
Result: 0 (no)

Q: Record request — test call for O=C(F)C1(F)C(F)(F)C(F)(F)C(F)(F)C(F)(F)C1(F)F
Result: 0 (no)

Q: Which outcome did this test record for the compound CO[Si](C)(CCC(F)(F)C(F)(F)C(F)(F)C(F)(F)C(F)(F)C(F)(F)F)OC ?
Result: 0 (no)

Q: // return assay outcome for O=C(O)C(F)(F)C(F)(F)C(F)(F)C(=O)O
Result: 0 (no)

Q: I would be grateful if you could indicate the recorded call for O=C(O)C(F)(F)C(F)(F)C(F)(F)C(F)(F)C(F)(F)C(F)(F)C(F)F .
Result: 0 (no)

Q: Short answer needed: outcome of this test for Brc1nc2ccccc2s1 ?
Result: 0 (no)

Q: Can you look up the reported call for O=C1C=CC(=O)N1c1ccc(Cc2ccc(N3C(=O)C=CC3=O)cc2)cc1 for me?
Result: 1 (yes)

----------
test: ATG_TAL_CIS: Attagene CIS-FACTORIAL HepG2 Assay for human TAL Basal Promoter (AID 2282966); details: HepG2 Attagene cis-factorial TAL promoter reporter; actives raise or lower the signal;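 note: background control endpoint measuring basal TAL promoter reporter mRNA not a specific factor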
Calls of active or inactive are those of the source. How the source made its calls: active means hit-call score of the fitted dose curve at least 0.9, where 1 is the maximum; inactive means score below 0.9.
Parameter call: string, one of active, inactive

Q: Identify the outcome logged in this assay for the molecule shown: O=S(=O)(OCC(F)(F)F)C(F)(F)C(F)(F)C(F)(F)C(F)(F)F
Result: active

Q: Entry COCCC(=O)OC : call = ?
Result: inactive

Q: Just curious, what result did O=C(F)C1(F)C(F)(F)C(F)(F)C(F)(F)C(F)(F)C1(F)F get here?
Result: inactive

Q: What outcome does the record of this test show for CO[Si](C)(CCC(F)(F)C(F)(F)C(F)(F)C(F)(F)C(F)(F)C(F)(F)F)OC ?
Result: inactive

Q: Give the logged outcome of this assay for the following molecule: O=C(O)C(F)(F)OC(F)(F)C(F)(F)OC(F)(F)C(F)(F)OC(F)(F)F
Result: inactive

Q: Can you look up the reported call for Cc1ccc2c(c1)OCC(=O)CO2 for me?
Result: inactive

Q: How did this test come out for CCOC(=O)C1CC(=O)C(=C(O)C2CC2)C(=O)C1 (configuration not stated) ?
Result: inactive

Q: // outcome(item) with item = NC(=O)C(F)(F)C(F)(F)C(F)(F)F
Result: inactive

Q: Please state the recorded outcome for this molecule: Cc1ccc(O)c(-n2nc3ccccc3n2)c1
Result: inactive

Q: Recorded call for CCC/C=C/CO ?
Result: inactive

Q: Record request — test call for Nc1c(Br)cc([N+](=O)[O-])cc1Br
Result: inactive

Q: Hi team, can someone confirm the assay call for OCC1CCCO1 (configuration not stated) ?
Result: inactive

Q: Kindly provide the recorded test outcome for the following molecule: O=C(O)C(F)(F)C(F)(F)C(F)(F)OC(F)(F)F
Result: inactive

Q: What did this assay record as the result for O=C1C=CC(=O)N1c1ccccc1 ?
Result: inactive

Q: Returns: the outcome recorded for O=C(Cl)c1ccc(Cl)cc1Cl in this assay.
Result: inactive

Q: Assay result, entry CCOC(C=C(C)CCC=C(C)C)OCC — outcome?
Result: inactive

Q: Which outcome did this test record for the molecule C=CC(=O)OCC(F)(F)C(F)(F)C(F)(F)C(F)(F)C(F)(F)C(F)(F)C(F)(F)C(F)F ?
Result: inactive

Q: I'd appreciate the recorded outcome for CCOC(OCC)OCC from this test.
Result: inactive

Q: How was CCN=C1C=CC(=C(c2ccc(N(CC)CC)cc2)c2ccc(N(CC)CC)cc2)c2ccccc21 classified in this test?
Result: inactive

Q: What did the test return for Nc1cccnc1N ?
Result: inactive

Q: What did the test return for CC(C)(C)c1cc(Cc2cc(C(C)(C)C)c(O)c(C(C)(C)C)c2)cc(C(C)(C)C)c1O ?
Result: inactive

Q: Record lookup: outcome of this test for CCc1ccc(C)nc1 ?
Result: inactive

Q: What call does the record list for CNS(=O)(=O)C(F)(F)C(F)(F)C(F)(F)C(F)(F)C(F)(F)C(F)(F)C(F)(F)C(F)(F)F ?
Result: inactive

Q: What call does the record list for CCC(Cc1c(I)cc(I)c(N)c1I)C(=O)O (configuration not stated) ?
Result: inactive

Q: Status in this test for CCc1cccc(C)c1N(C(=O)C(=O)O)C(C)COC (configuration not stated) ?
Result: inactive

Q: Status in this test for Brc1nc2ccccc2s1 ?
Result: inactive

Q: Which result was noted for this molecule in the test: C#CC(O)CCC (configuration not stated)
Result: inactive

Origin of measurements: PubChem BioAssay (EPA / NIEHS)
